# credit: the supplement of paper PMC9732359

METHOD NOTES: protein stability index of a GFP-peptide fusion (yeast GPS) (PSI 1-4); higher = more stable; sorted into four equal gates, so the index is relative within each strain
RECORDED CONDITIONS: san1∆
Decision: protein stability index >= 3 yields condition met, all other cases yield condition not met.

RDVRDQAAGGLSIRLTN [RPN8] :: condition not met
TRIAGVVYHPSNNELVR [RPS8A] :: condition not met
EDLHEKNDSAEVRQETQ [NUT1] :: condition met

Has SDNIASLQYINIRGNTI [SMD1] a recorded protein stability index greater than or equal to 3?
condition not met

Record QLAGKSGEDTNVGLPIL [YOR098C/NUP1] ; criterion: protein stability index no lower than 3. Met?
condition met

Please check the record TVYISSIALLKMLKHGR [RPN11] and state if its protein stability index is at or above 3.
condition not met

Is protein stability index for RIMSTRCMMAAQYFYSG [DIS3] at or above 3?
condition not met

Is reported protein stability index greater than or equal to 3 here: TGANFDDVERGVSRQIA [REC8]
condition met

Test whether the sequence ITVRYWLNGKMDSKGKI [RGR1] records protein stability index of 3 or higher.
condition met

API: above_or_equal(metric=protein stability index, cutoff=3) for item KLMDEDSVATVIEVIET [YJR042W/NUP85]
condition not met

====

Known protein stability index of a selection of sequences
METHOD NOTES: protein stability index of a GFP-peptide fusion (yeast GPS) (PSI 1-4); higher = more stable; sorted into four equal gates, so the index is relative within each strain
RECORDED CONDITIONS: doa10∆
Lab note: record the figure alone, no unit after it.

Examples with answers:
SPQKFETNLQTFLPPLL [ECM29] :: 3.01
MMCDFGTGNNNKLNFIV [DIB1] :: 1.13
GTSVYLVDKRIDMLPML [DIS3] :: 1.89

Short answer for KALDNACGAFININEFA [CDC53] : protein stability index was 2.56

protein stability index reading for SLKGLQSKLKDVVEYLD [RPN8] : 2.92

Documented protein stability index of DSKLLPKNIEPPLTSQY [SWI3] : 2.89

====

METHOD NOTES: protein stability index of a GFP-peptide fusion (yeast GPS) (PSI 1-4); higher = more stable; sorted into four equal gates, so the index is relative within each strain
RECORDED CONDITIONS: pdr5∆
OUTCOME MEASURE: protein stability index
Form rule: numeric answer, no unit written next to it.

LTKYIRSKNLIFNGETL [GRR1] :: 2.43
IDEPIKSIMDGIHDGHI [FAS1] :: 1.87
SDWNPQADLQAMDRAHR [ISW2] :: 3.23
TSEEQTKFLAKNGVIPE [SWP82] :: 3.6
TFRLPKTLKLARAPKYA [RPL25] :: 1.61
VHEWEVSKPSLLHETND [PRP8] :: 3.05

The recorded protein stability index for LLISDTESNELIQKLQN [IRR1] is 2.85

Per the record, VKRYRLAPTQLSAEYLV [SIN4] has protein stability index of 2.23

What the record says about FAIRDDRDHINPDDLMK [RPT4] : protein stability index is 2.99

Value of protein stability index reported for the sequence LCKTKMVCETDVPSEDD [RPO21] is 3
